# Experiment summary: Fraction unbound in Sprague-Dawley rat plasma at 0.1 to 0.3 mg/kg, po
# Type: ADME, organism-based
# Design: dose 0.1-0.3 mg/kg, route oral
Observable: fraction unbound

query: Given Cc1c(CC(=O)O)c2cccnc2n1Cc1ccc(S(C)(=O)=O)cc1 [QAV680] , state its recorded fraction unbound.
result: 0.34

* * *

# Experiment summary: Cmax in Balb/c mouse at 5 mg/kg, po
# Format: ADME, organism-based
# Parameters: dose 5 mg/kg, route oral
# Particulars: in vivo
Observable: Cmax (µM)
Respond numerically; units are µM and should not be typed.

query: Given Cc1c(CC(=O)O)c2cccnc2n1Cc1ccc(S(C)(=O)=O)cc1 [QAV680] , state its recorded Cmax.
result: 7.6

* * *

# Tested on: Prostaglandin D2 receptor 2 (Homo sapiens)
# Sequence (whole entry): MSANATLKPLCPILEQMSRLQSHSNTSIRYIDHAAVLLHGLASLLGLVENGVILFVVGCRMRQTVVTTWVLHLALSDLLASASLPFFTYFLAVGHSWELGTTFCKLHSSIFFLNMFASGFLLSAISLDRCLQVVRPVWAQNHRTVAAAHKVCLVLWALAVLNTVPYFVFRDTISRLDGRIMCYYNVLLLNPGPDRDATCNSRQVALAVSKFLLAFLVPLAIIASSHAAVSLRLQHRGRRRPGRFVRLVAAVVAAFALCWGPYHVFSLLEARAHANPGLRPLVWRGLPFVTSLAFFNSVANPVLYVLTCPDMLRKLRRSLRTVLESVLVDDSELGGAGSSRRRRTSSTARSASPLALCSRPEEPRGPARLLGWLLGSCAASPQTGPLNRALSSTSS
# Experiment summary: Antagonist activity at human CRTh2 receptor expressed in CHO cells assessed as inhibition of prostaglandin D2 and forskolin-induced cAMP accumulation after 45 mins in presence of 0.1% HSA
# Assay type: functional, cell-based
// reported fold change (FC) per item
Returns: the value as a bare number; no unit string appended.

query: Given Cc1c(CC(=O)O)c2cccnc2n1Cc1ccc(S(C)(=O)=O)cc1 , state its recorded fold change (FC).
result: 3.1

query: Another molecule to check: Cc1c(CC(=O)O)c2cccnc2n1Cc1ccc(S(=O)(=O)C(F)(F)F)cc1
result: 0.9

query: Another molecule to check: Cc1c(CC(=O)O)c2cccnc2n1S(=O)(=O)c1ccc(Cl)cc1
result: 3.8

More entries:
query: Given Cc1c(CC(=O)O)c2cccnc2n1Cc1ccc([S+](C)[O-])cc1 (racemic) , state its recorded fold change (FC).
result: 3.1

query: Another molecule to check: Cc1c(CC(=O)O)c2cccnc2n1Cc1ccc(Cl)cc1
result: 4.1

query: Another molecule to check: Cc1c(CC(=O)O)c2cccnc2n1Cc1ccc([N+](=O)[O-])cc1
result: 4.1
